- STUDY TARGET: penicillin-binding protein 1b from E. coli (transglycosylase) (Escherichia coli)
- Construct: PBP1b[58-804] was amplified from E. coli genomic DNA and cloned into the expression vector pET15b; His6 (N, cleaved yes); made in house; host or cells: E. coli BL21(DE3)
- METHOD: Lipid II polymerization / transglycosylase (TG) activity assay
- Format: biochemical
- RUN PARAMETERS: 25 μM compound; TG activity remaining (0% = full inhibition)
Measured TG Activity at various concentration of cmpd: 25 μM values are reported for all entries that follow.
Report as a plain number; the unit % is understood.

[[record]]
compound = "O=C(Nc1cc(Cl)ccc1Oc1ccccc1)c1cc(Br)cc(Br)c1O [Compound 009]"
study_target = "penicillin-binding protein 1b from E. coli (transglycosylase) (Escherichia coli)"
measurement = 100


Input Cc1ccc(C(C)C)c(Oc2ccccc2NC(=O)c2cc(Br)cc(Br)c2O)c1 [Compound 204] . Output TG Activity at various concentration of cmpd: 25 μM: 50

The measured TG Activity at various concentration of cmpd: 25 μM associated with Cc1ccc(C(C)C)cc1Oc1ccc(Cl)cc1NC(=O)c1cc(Cl)cc(Br)c1O [Compound 206] reads 60

Value of TG Activity at various concentration of cmpd: 25 μM reported for the compound Cc1ccc(C(C)C)c(Oc2ccc(Cl)cc2NC(=O)c2cc(Cl)cc(Cl)c2O)c1 [Compound 209] is 60

TG Activity at various concentration of cmpd: 25 μM in this record for Cc1ccc(C(C)C)cc1Oc1ccc(Cl)cc1NC(=O)c1cc(Cl)cc(Br)c1O [Compound 121] : 90

Measured TG Activity at various concentration of cmpd: 25 μM of Cc1ccc(C(C)C)c(Oc2ccc(Cl)cc2NC(=O)c2cc(I)cc(I)c2O)c1 [Compound 208] : 100

---

- STUDY TARGET: penicillin-binding protein 1b from E. coli (transglycosylase) (Escherichia coli, UniProt P02919)
- Construct: PBP1b[58-804] was amplified from E. coli genomic DNA and cloned into the expression vector pET15b; His6 (N, cleaved yes); made in house; host or cells: E. coli BL21(DE3)
- Sequence (P02919 58-804): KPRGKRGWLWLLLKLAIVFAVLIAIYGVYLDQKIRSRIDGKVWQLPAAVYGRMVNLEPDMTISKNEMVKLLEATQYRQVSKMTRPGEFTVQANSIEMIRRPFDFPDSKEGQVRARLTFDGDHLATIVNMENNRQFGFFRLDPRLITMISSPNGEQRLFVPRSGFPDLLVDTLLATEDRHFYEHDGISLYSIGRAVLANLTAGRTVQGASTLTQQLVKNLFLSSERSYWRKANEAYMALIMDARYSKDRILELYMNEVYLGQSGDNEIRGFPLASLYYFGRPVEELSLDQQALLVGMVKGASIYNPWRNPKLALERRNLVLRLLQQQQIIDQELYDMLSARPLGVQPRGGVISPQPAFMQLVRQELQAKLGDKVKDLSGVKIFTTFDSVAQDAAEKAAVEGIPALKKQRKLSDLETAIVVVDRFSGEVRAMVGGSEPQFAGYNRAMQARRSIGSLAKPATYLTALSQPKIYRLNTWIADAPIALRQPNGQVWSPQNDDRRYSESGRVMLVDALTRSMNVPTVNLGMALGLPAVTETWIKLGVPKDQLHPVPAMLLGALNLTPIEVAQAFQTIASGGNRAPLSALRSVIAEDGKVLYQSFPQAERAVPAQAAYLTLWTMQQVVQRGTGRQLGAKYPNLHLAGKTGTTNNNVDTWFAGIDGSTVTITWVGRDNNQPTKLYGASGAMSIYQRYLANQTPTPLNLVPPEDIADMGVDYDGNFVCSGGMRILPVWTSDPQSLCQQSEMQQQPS
- METHOD: Lipid II polymerization / transglycosylase (TG) activity assay
- Format: biochemical
- RUN PARAMETERS: read-out: TG Activity at various concentration of cmpd: 100 μM
Reported remaining activity at 100 µM values follow for various compounds
Report as a plain number; the unit % is understood.

Here's what some known entries look like.
[[record]]
given_smiles = "COc1ccc(NC(=O)c2ccccc2O)cc1"
endpoint = "remaining activity at 100 µM"
readout_units = "%"
measurement = 100

[[record]]
given_smiles = "O=C(Nc1cc(Cl)c(Cl)c(Cl)c1)c1cc(Br)cc(Br)c1O"
endpoint = "remaining activity at 100 µM"
readout_units = "%"
measurement = 100

[[record]]
given_smiles = "O=C(Nc1cc(Cl)ccc1Oc1ccccc1)c1cc(Br)cc(Br)c1O"
endpoint = "remaining activity at 100 µM"
readout_units = "%"
measurement = 0

[[record]]
given_smiles = "O=C(Nc1ccc(Cl)cc1)c1cc(Br)cc(Br)c1O"
endpoint = "remaining activity at 100 µM"
readout_units = "%"
measurement = 100

[[record]]
given_smiles = "O=C(Nc1ccc(Cl)cc1)c1ccccc1O"
endpoint = "remaining activity at 100 µM"
readout_units = "%"
measurement = 100


For `O=C(Nc1ccc([N+](=O)[O-])cc1)c1ccccc1O` the compound record lists remaining activity at 100 µM as 100

Quick note, remaining activity at 100 µM for `O=C(Nc1ccc(Cl)c(Cl)c1)c1cc(Cl)cc(Cl)c1O` landed at 100

So, `Cc1ccc(NC(=O)c2cc(Br)cc(Br)c2O)cc1Cl` ? Its remaining activity at 100 µM was 100

Reported remaining activity at 100 µM for `O=C(Nc1cccc(Cl)c1)c1cc(Br)cc(Br)c1O` was 100

---

- STUDY TARGET: penicillin-binding protein 1b from E. coli (transglycosylase) (Escherichia coli, UniProt P02919)
- Construct: PBP1b[58-804] was amplified from E. coli genomic DNA and cloned into the expression vector pET15b; His6 (N, cleaved yes); made in house; host or cells: E. coli BL21(DE3)
- METHOD: Lipid II polymerization / transglycosylase (TG) activity assay
- Assay type: biochemical
- RUN PARAMETERS: 100 μM compound; TG activity remaining (0% = full inhibition)
- Method: Lipid II polymerization assays were carried out by incubating 100 μM fluorophore-labeled lipid II and penicillin-binding protein 1b from E. coli in tubes containing 10 ng/μL N-acetyl muramidase in 50 mM Tris.HCl (pH 8.0), 10 mM MgCl2, 0.1% Triton X-100, 10% DMSO, and 15% MeOH for 30 minutes (Van Nieuwenhze et al. J Am Chem Soc 2002, 124, 3656.). The fluorophore can be dansyl chloride, NBD, BODIPY, fluorescein. […] The eluant was monitored for fluorescence with λex=466 nm and λem=535 nm. […]
TG Activity at various concentration of cmpd: 100 μM reference
Give a bare numeral; the unit % is implied.

Examples with their reported TG Activity at various concentration of cmpd: 100 μM follow.
[[record]]
given_smiles = "Cc1ccc(C(=O)c2cc(Cl)cc(NC(=O)c3cc(Br)cc(Br)c3O)c2Cl)cc1"
measurement = 0

[[record]]
given_smiles = "O=C(Nc1ccccc1Oc1ccccc1)c1ccc(O)c(O)c1O"
measurement = 0

[[record]]
given_smiles = "O=C(Nc1ccccc1Oc1ccccc1)c1ccc(O)cc1"
measurement = 100

[[record]]
given_smiles = "O=C(Nc1cc(Cl)ccc1Oc1ccccc1)c1cc(Br)cc(Br)c1"
measurement = 100

[[record]]
given_smiles = "Cc1ccc(NC(=O)c2ccccc2)cc1Cl"
measurement = 100


Reported TG Activity at various concentration of cmpd: 100 μM ( `O=C(Nc1ccccc1Oc1ccccc1)c1ccccc1O` ) = 100

Documented TG Activity at various concentration of cmpd: 100 μM of `O=C(Nc1cc(Cl)cc(C(=O)c2ccccc2)c1Cl)c1cc(Br)cc(Br)c1O` : 0

---

- System: Mycobacterium smegmatis (ATCC11565, MS)
- METHOD: Minimal inhibitory concentration (MIC), MS
- Format: cell-based
- RUN PARAMETERS: Mycobacterium smegmatis ATCC11565
The compounds listed here are annotated with their MIC MS.
Write the answer as a number in µg/mL, unit excluded.

[[record]]
compound = "Cc1ccc(C(C)C)c(Oc2ccccc2NC(=O)c2cc(I)cc(I)c2O)c1 [Compound 201]"
endpoint = "MIC MS"
readout_units = "µg/mL"
measurement = 8


Consider now this further compound.
Documented MIC MS of Cc1ccc(C(C)C)cc1Oc1ccc(Cl)cc1NC(=O)c1cc(Cl)cc(Br)c1O [Compound 206] : 1

---

- STUDY TARGET: penicillin-binding protein 1b from E. coli (transglycosylase) (Escherichia coli, UniProt P02919)
- Construct: PBP1b[58-804] was amplified from E. coli genomic DNA and cloned into the expression vector pET15b; His6 (N, cleaved yes); made in house; host or cells: E. coli BL21(DE3)
- METHOD: Lipid II polymerization / transglycosylase (TG) activity assay
- Type: biochemical
- RUN PARAMETERS: 25 μM compound; TG activity remaining (0% = full inhibition)
ENDPOINT: TG Activity at various concentration of cmpd: 25 μM (%)
Kindly answer with a numeric value in %, unit omitted.

Answered examples (2):
[[record]]
given_smiles = "Cc1ccc(C(C)C)c(Oc2ccccc2NC(=O)c2cc(I)cc(I)c2O)c1"
measurement = 30

[[record]]
given_smiles = "Cc1ccc(C(C)C)c(Oc2cc(Cl)ccc2NC(=O)c2cc(Br)cc(Br)c2O)c1"
measurement = 20


Okay, now this compound:
Just so you know, measured TG Activity at various concentration of cmpd: 25 μM for `O=C(c1ccc(Cl)cc1)c1ccc(Oc2ccc(Cl)cc2)c(NC(=O)c2cc(I)cc(I)c2O)c1` came out at 20

---

Items are presented alongside their recorded remaining activity at 100 µM.
- STUDY TARGET: penicillin-binding protein 1b from E. coli (transglycosylase) (Escherichia coli, UniProt P02919)
- Construct: PBP1b[58-804] was amplified from E. coli genomic DNA and cloned into the expression vector pET15b; His6 (N, cleaved yes); made in house; host or cells: E. coli BL21(DE3)
- METHOD: Lipid II polymerization / transglycosylase (TG) activity assay
- Type: biochemical
- RUN PARAMETERS: read-out: TG Activity at various concentration of cmpd: 100 μM
Hi! Could you send only the number? It should be in %, unit omitted.

Sample O=C(Nc1cc(Cl)ccc1Cl)c1cc(Br)cc(Br)c1O [Compound 127] ; remaining activity at 100 µM observed: 100

---

- STUDY TARGET: penicillin-binding protein 1b from E. coli (transglycosylase) (Escherichia coli)
- Construct: PBP1b[58-804] was amplified from E. coli genomic DNA and cloned into the expression vector pET15b; His6 (N, cleaved yes); made in house; host or cells: E. coli BL21(DE3)
- METHOD: Lipid II polymerization / transglycosylase (TG) activity assay
- Type: biochemical
- RUN PARAMETERS: 100 μM compound; TG activity remaining (0% = full inhibition)
Below is a list of entries, each paired with its recorded TG Activity at various concentration of cmpd: 100 μM value.
Dear colleague, please return just the value in %, with no unit written.

Would you please look over these solved cases?
[[record]]
compound = "Cc1ccc(NC(=O)c2ccc(O)cc2)cc1Cl [Compound A6N3]"
readout_units = "%"
measurement = 100

[[record]]
compound = "O=C(Nc1cc(Cl)ccc1O)c1ccc(Cl)c(C(=O)c2ccc(Cl)cc2)c1 [Compound 126]"
readout_units = "%"
measurement = 100

[[record]]
compound = "O=C(Nc1cc(Cl)ccc1Oc1ccccc1)c1ccccc1 [Compound A4N1]"
readout_units = "%"
measurement = 100


Simply: O=C(Nc1ccc(Oc2ccc(Cl)cc2)c(Cl)c1)c1cc(Br)cc(Br)c1O [Compound 122] , penicillin-binding protein 1b from E. coli (transglycosylase) (Escherichia coli), TG Activity at various concentration of cmpd: 100 μM = 0

Sample O=C(Nc1cc(Cl)ccc1Oc1ccccc1)c1ccc(O)cc1 [Compound A6N1] , system: penicillin-binding protein 1b from E. coli (transglycosylase) (Escherichia coli). Its TG Activity at various concentration of cmpd: 100 μM is 100

Param item: Cc1ccc(C(C)C)cc1Oc1ccc(Cl)cc1NC(=O)c1cc(Cl)cc(Br)c1O [Compound 121] ; param system: penicillin-binding protein 1b from E. coli (transglycosylase) (Escherichia coli); output TG Activity at various concentration of cmpd: 100 μM: 0

# O=C(Nc1cc(Cl)ccc1Oc1ccccc1)c1ccc(O)c(O)c1O [Compound A5N1] with penicillin-binding protein 1b from E. coli (transglycosylase) (Escherichia coli): TG Activity at various concentration of cmpd: 100 μM is 0

Case O=C(c1ccc(Cl)cc1)c1cc(NC(=O)c2cc(Cl)cc(Br)c2O)c(Cl)cc1Cl [Compound 123] , penicillin-binding protein 1b from E. coli (transglycosylase) (Escherichia coli), TG Activity at various concentration of cmpd: 100 μM recorded as 0

The compound O=C(c1ccccc1)c1cc(NC(=O)c2cc(Br)cc(Br)c2O)ccc1Cl [Compound 124] on penicillin-binding protein 1b from E. coli (transglycosylase) (Escherichia coli): TG Activity at various concentration of cmpd: 100 μM was 0

Measured TG Activity at various concentration of cmpd: 100 μM (penicillin-binding protein 1b from E. coli (transglycosylase) (Escherichia coli)), entry O=C(Nc1cc(Cl)cc(C(=O)c2ccc(Cl)cc2)c1Cl)c1cc(Cl)cc(Br)c1O [Compound 117] : 0

Form field, TG Activity at various concentration of cmpd: 100 μM with penicillin-binding protein 1b from E. coli (transglycosylase) (Escherichia coli), item O=C(Nc1ccccc1Oc1ccccc1)c1cc(Br)cc(Br)c1O [Compound A1N2] : 100
